biological target: T1, hIL2-DM-his (human, UniProt P60568 21-153); test: BLI ForteBio, Ab on Protein A sensor
T1 construct: expressed in ExpiCHO-S cells, nickel-column purified; also called hIL-2 mutein containing two point mutations K64G and N90R (with a his-tag); not shown: his-tag
T1 sequence (P60568 21-153 K84G/N110R): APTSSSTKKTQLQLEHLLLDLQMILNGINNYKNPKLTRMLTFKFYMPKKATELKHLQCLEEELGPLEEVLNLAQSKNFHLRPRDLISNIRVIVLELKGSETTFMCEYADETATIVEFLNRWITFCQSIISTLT
// reported kon for each item listed
Provide the reading as a plain figure in M⁻¹ s⁻¹.

Worked cases, kon given:
>  <binder>
K2G3 (antibody, V domains shown) VH: QVQLVQSGAEVKKPGATVKISCKVSGDTITAYYMHWVRQAPGQGLEWIGRIDPDDDSTKYAENFKGRVTITADTSTDTAYMELSSLRSEDTAVYYCTTVTFYYSRELRWFAYWGQGTLVTVSS VL: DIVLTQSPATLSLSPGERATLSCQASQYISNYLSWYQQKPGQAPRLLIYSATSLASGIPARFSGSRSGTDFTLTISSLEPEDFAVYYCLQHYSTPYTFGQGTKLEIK

>  <endpoint-result>
389000

$$$$
>  <binder>
K3G9 (antibody, V domains shown) VH: QVQLVQSGAEVKKPGATVKISCKVSGDTITAYYMHWVRQAPGQGLEWIGRIDPEDDSTKYAENFKGRVTITADTSTDTAYMELSSLRSEDTAVYYCTTITFLYTRELRWFAYWGQGTLVTVSS VL: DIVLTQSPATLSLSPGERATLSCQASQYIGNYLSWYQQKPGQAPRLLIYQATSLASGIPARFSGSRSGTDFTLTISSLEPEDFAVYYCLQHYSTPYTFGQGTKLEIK

>  <endpoint-result>
356000

$$$$
>  <binder>
K4G6 (antibody, V domains shown) VH: QVQLVQSGAEVKKPGATVKISCKVSGDTITAYYMHWVRQAPGQGLEWIGRIDPDDDSTKYAENFKGRVTITADTSTDTAYMELSSLRSEDTAVYYCTTITFYYSRELRWFAYWGQGTLVTVSS VL: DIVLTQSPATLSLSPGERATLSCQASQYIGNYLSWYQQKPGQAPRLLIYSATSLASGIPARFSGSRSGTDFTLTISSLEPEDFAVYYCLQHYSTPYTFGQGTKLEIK

>  <endpoint-result>
426000

$$$$
>  <binder>
K2G2 (antibody, V domains shown) VH: QVQLVQSGAEVKKPGATVKISCKVSGDTITAYYMHWVRQAPGQGLEWIGRIDPEDDSTKYAENFKGRVTITADTSTDTAYMELSSLRSEDTAVYYCTTITFYYSRELRWFAYWGQGTLVTVSS VL: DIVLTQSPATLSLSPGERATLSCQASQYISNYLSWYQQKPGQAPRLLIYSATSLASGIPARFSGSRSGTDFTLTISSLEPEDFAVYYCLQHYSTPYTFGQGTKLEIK

>  <endpoint-result>
424000

$$$$

Entry K3G4 (antibody, V domains shown) VH: QVQLVQSGAEVKKPGATVKISCKVSGDTITAYYMHWVRQAPGQGLEWIGRIDPEDDSTKYAENFKGRVTITADTSTDTAYMELSSLRSEDTAVYYCTTVTFLYSRELRWFAYWGQGTLVTVSS VL: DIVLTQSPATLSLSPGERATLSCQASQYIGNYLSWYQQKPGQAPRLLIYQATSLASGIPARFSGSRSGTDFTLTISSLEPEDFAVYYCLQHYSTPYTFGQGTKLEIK — recorded kon = 408000

// data source = patent US20250346644A1
